# Test system: Human papillomavirus type 1a E7 protein (residues 1-88)
# assay remarks: HPV1a E7 small-molecule binders, primary screen, biochemical, small-molecule microarray, residues 1-88, 635 nm (AID 1129)
# condition: small-molecule microarray binding, fluorescence 635 nm; higher = more signal
Classification field: enter Criterion met for composite z-score values not below 0.4, Criterion not met for values below it.

{"molecule": "C=CCC(OC(C)=O)[C@@H]1[C@@H](N(Cc2ccc(-c3ccccc3)cc2)C(=O)Cc2ccc(OC)cc2)c2cc(OCCCO)ccc2N1C(=O)c1ccc2ccccc2c1 (stereo partly drawn)", "assay system": "Human papillomavirus type 1a E7 protein (residues 1-88)", "assigned category": "Criterion not met"}
{"molecule": "C=C(C(=O)CC[C@@H](OC(=O)c1ccccc1-c1ccccc1C(=O)O)c1ccc(OCCO)cc1)C(C)C", "assay system": "Human papillomavirus type 1a E7 protein (residues 1-88)", "assigned category": "Criterion met"}
{"molecule": "CCCCC(=C=CC[C@@H](O)c1ccccc1OCCO)C[C@@H](O)c1ccccn1", "assay system": "Human papillomavirus type 1a E7 protein (residues 1-88)", "assigned category": "Criterion met"}
{"molecule": "CN1C(=O)C2C=CC(C(O)c3cccs3)N(N(c3ccccc3)c3ccccc3)C2C1=O (stereo not drawn)", "assay system": "Human papillomavirus type 1a E7 protein (residues 1-88)", "assigned category": "Criterion met"}
{"molecule": "CC1C2C(CCCO)=CC(C3C(=O)N(C(N)=O)C(=O)C23)N1Cc1cccc(OC(F)(F)F)c1 (stereo not drawn)", "assay system": "Human papillomavirus type 1a E7 protein (residues 1-88)", "assigned category": "Criterion met"}
{"molecule": "COc1cccc(C)c1NC(=O)O[C@H]1[C@H](OC(=O)Nc2ccccc2)[C@@H](OC(=O)Nc2ccccc2)[C@@H](OC)O[C@@H]1CO", "assay system": "Human papillomavirus type 1a E7 protein (residues 1-88)", "assigned category": "Criterion met"}
{"molecule": "O=C1c2ccccc2[C@](Cc2ccccc2I)(C(=O)NCCN2CCOCC2)[C@H](c2ccc(CO)cc2)N1Cc1ccccc1C(F)(F)F", "assay system": "Human papillomavirus type 1a E7 protein (residues 1-88)", "assigned category": "Criterion met"}
{"molecule": "COCCOC(=O)N1C(=O)[C@@]2(c3cc(C#CCNC(N)=O)ccc31)[C@H](C(N)=O)[C@H]1C(=O)O[C@H](c3ccccc3)[C@H](c3ccccc3)N1[C@@H]2c1ccc(O)cc1", "assay system": "Human papillomavirus type 1a E7 protein (residues 1-88)", "assigned category": "Criterion not met"}
{"molecule": "COC(=O)c1c2oc(c1C(=O)OC)C(=O)N[C@H](Cc1ccccc1)Cn1cc(nn1)C1(CCCCC1)NC(=O)N[C@H](CO)CC2", "assay system": "Human papillomavirus type 1a E7 protein (residues 1-88)", "assigned category": "Criterion not met"}
{"molecule": "C=CCNC(=O)[C@H]1[C@@H]2C(=O)O[C@@H](c3ccccc3)[C@@H](c3ccccc3)N2[C@@H](c2ccc(O)cc2)[C@]12C(=O)Nc1ccccc12", "assay system": "Human papillomavirus type 1a E7 protein (residues 1-88)", "assigned category": "Criterion met"}
{"molecule": "CC(C)(C)OC(=O)CC[C@]1(C(N)=O)N=C(c2ccc(OCCCO)cc2)O[C@H]1c1ccccc1N=[N+]=[N-]", "assay system": "Human papillomavirus type 1a E7 protein (residues 1-88)", "assigned category": "Criterion met"}
{"molecule": "O=C1C2C=CC(C(O)C3CC=CCC3)N(Nc3ccc([N+](=O)[O-])cc3)C2C(=O)N1c1ccccc1 (stereo not drawn)", "assay system": "Human papillomavirus type 1a E7 protein (residues 1-88)", "assigned category": "Criterion met"}
{"molecule": "C=C(CCCC)/C(=C/C[C@@H](OC(C)=O)c1ccc(OCCO)cc1)c1cc(C(=O)OC)ccc1OC", "assay system": "Human papillomavirus type 1a E7 protein (residues 1-88)", "assigned category": "Criterion met"}
{"molecule": "C[C@]1(C(=O)NCC(F)(F)F)c2ccccc2C(=O)N(Cc2cc(C(F)(F)F)cc(C(F)(F)F)c2)[C@H]1c1ccc(CO)cc1", "assay system": "Human papillomavirus type 1a E7 protein (residues 1-88)", "assigned category": "Criterion met"}
{"molecule": "COCCOC(=O)N1C(=O)[C@@]2(c3cc(C#CCC(C(=O)OC)C(=O)OC)ccc31)[C@H](C(=O)N1CCc3cc(OC)c(OC)cc3C1)[C@H]1C(=O)O[C@H](c3ccccc3)[C@H](c3ccccc3)N1[C@@H]2c1ccccc1OCCO", "assay system": "Human papillomavirus type 1a E7 protein (residues 1-88)", "assigned category": "Criterion met"}
{"molecule": "C=CCNC(=O)[C@H]1[C@@H]2C(=O)O[C@@H](c3ccccc3)[C@@H](c3ccccc3)N2[C@@H](c2ccc(OCCO)cc2)[C@]12C(=O)Nc1ccc(C#Cc3ccc(OC)cc3)cc12", "assay system": "Human papillomavirus type 1a E7 protein (residues 1-88)", "assigned category": "Criterion met"}
{"molecule": "CO[C@H]1O[C@H](CO)[C@@H](OC(=O)Nc2ccccc2)[C@@H]2OC(=O)[C@@H](Cc3ccccc3)C/C=C/C[C@H](Cc3ccccc3)C(=O)O[C@@H]12", "assay system": "Human papillomavirus type 1a E7 protein (residues 1-88)", "assigned category": "Criterion met"}
{"molecule": "[N-]=[N+]=Nc1ccccc1C[C@@]1(C(=O)NCC(O)CO)N=C(c2ccc(OCCCO)cc2)O[C@@H]1c1ccccc1N=[N+]=[N-] (stereo partly drawn)", "assay system": "Human papillomavirus type 1a E7 protein (residues 1-88)", "assigned category": "Criterion met"}
{"molecule": "COC(=O)C(CC#Cc1ccc2c(c1)[C@]1(C(=O)N2)[C@H](C(N)=O)[C@H]2C(=O)O[C@H](c3ccccc3)[C@H](c3ccccc3)N2[C@@H]1c1ccccc1OCCO)C(=O)OC", "assay system": "Human papillomavirus type 1a E7 protein (residues 1-88)", "assigned category": "Criterion met"}
{"molecule": "CO[C@H]1O[C@H](CO)[C@@H](OC(=O)Nc2cccc(F)c2)[C@H](OC(=O)Nc2ccc3c(c2)OCO3)[C@@H]1OC(=O)Nc1ccc2c(c1)OCO2", "assay system": "Human papillomavirus type 1a E7 protein (residues 1-88)", "assigned category": "Criterion met"}
{"molecule": "CN(C)CCCCNC(=O)[C@H]1C[C@H]2C(=O)N[C@@H](CCCCN(C)C)C(=O)N2[C@H]1c1ccc(O)cc1", "assay system": "Human papillomavirus type 1a E7 protein (residues 1-88)", "assigned category": "Criterion not met"}
{"molecule": "CC1(C)OB(/C=C\\CC(OC(=O)c2ccncc2)c2ccccc2)OC1(C)C (stereo not drawn)", "assay system": "Human papillomavirus type 1a E7 protein (residues 1-88)", "assigned category": "Criterion not met"}
{"molecule": "O=C1NC(=O)C2C1C=CC(C(O)C1CCCCC1)N2Nc1ccccn1 (stereo not drawn)", "assay system": "Human papillomavirus type 1a E7 protein (residues 1-88)", "assigned category": "Criterion met"}
{"molecule": "C=C(C(=O)CC[C@@H](OC(=O)c1cccnc1)c1cccc(OCCO)c1)C(C)C", "assay system": "Human papillomavirus type 1a E7 protein (residues 1-88)", "assigned category": "Criterion not met"}
{"molecule": "C=C(CCCC)C(=O)CC[C@H](OC(=O)c1ccccc1-c1ccccc1C(=O)O)c1cccc(OCCO)c1", "assay system": "Human papillomavirus type 1a E7 protein (residues 1-88)", "assigned category": "Criterion not met"}
{"molecule": "COC(=O)[C@@]1(Cc2ccc(OC)cc2)[C@H]2c3cc(C(=O)N(C)C)n(Cc4c(CO)[nH]cc(C)c4=O)c3C[C@H]2CN1C(=O)c1ccccc1", "assay system": "Human papillomavirus type 1a E7 protein (residues 1-88)", "assigned category": "Criterion met"}
{"molecule": "COc1cc2c(cc1O)C(C)N(Cc1sc3ccccc3c1Cl)CC2 (stereo not drawn)", "assay system": "Human papillomavirus type 1a E7 protein (residues 1-88)", "assigned category": "Criterion not met"}
{"molecule": "CCCCN1CC=CC23O[C@@H]4/C=C\\CCCOC(=O)C4[C@H]2C(=O)N(CCCCCCO)[C@@H]3C1=O (stereo partly drawn)", "assay system": "Human papillomavirus type 1a E7 protein (residues 1-88)", "assigned category": "Criterion not met"}

====

Reported composite z-score values are given for each entry in this list.
# Tested on: wheat germ agglutinin (Triticum aestivum), Alexa647-labelled
# assay remarks: wheat germ agglutinin binders on compound microarrays, profiling panel, artefact control for SMM control-protein annotation, biochemical, small-molecule microarray, 635/667 nm fluorescence (AID 1140);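 further: score merges 667 nm feature emission with signal to noise over triplicate slides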
# condition: WGA-A647 binding, 635 nm fluorescence, higher = more signal
parameter measured: composite z-score

{"molecule": "O=C1NC(=O)C2C1C=CC(C(O)C(c1ccccc1)c1ccccc1)N2Nc1ccccn1 (centres undefined)", "val": 0.843}
{"molecule": "Cc1ccc(S[C@]2(C(=O)NC(C)C)CC(=O)N(Cc3ccccc3)[C@@H]2c2ccc(CO)cc2)cc1", "val": 0.704}
{"molecule": "CC(C)[Si]1(C(C)C)OCc2cc(-c3ccc(-c4ccc(Cl)c(Cl)c4)o3)nc(-c3ccc(Oc4ccccc4)cc3)c21", "val": -0.0312}
{"molecule": "COCCOC(=O)N1C(=O)[C@@]2(c3cc(C#CCC(C(=O)OC)C(=O)OC)ccc31)[C@H](C(=O)N1CCc3cc(OC)c(OC)cc3C1)[C@H]1C(=O)O[C@H](c3ccccc3)[C@H](c3ccccc3)N1[C@@H]2c1ccccc1OCCO", "val": 0.281}
{"molecule": "C=CC[C@]12N=C(c3ccc(OCCCO)cc3)O[C@H]1c1ccccc1N(CCC)C2=O", "val": 0.954}
{"molecule": "O=C1N(Cc2ccccc2)c2ccccc2C[C@@]12N=C(c1ccc(OCCCO)cc1)O[C@H]2c1ccccc1", "val": 0.294}
{"molecule": "C=C(/C=C\\CNS(=O)(=O)c1ccc(C)cc1)[C@H](O)[C@H]1CCCN1S(=O)(=O)c1ccccc1[N+](=O)[O-]", "val": 0.878}
{"molecule": "OCCCc1cc[n+](Cc2cc3c(cc2Br)OCO3)cc1", "val": -0.77}
{"molecule": "C=C[C@H](OC)[C@@H](O)c1ccc(OC)c(O)c1", "val": -0.609}
